- Tested on: Escherichia coli
- measurement protocol: Antimicrobial activity against Escherichia coli ATCC 35218 after 18 to 24 hrs by micro-dilution method
- Assay type: functional
assay metric: MIC

compound structure | assay metric | reading
O=[N+]([O-])c1ccc(-n2cc(CN(Cc3cn(-c4ccc([N+](=O)[O-])cc4)nn3)c3nc4ccccc4s3)nn2)cc1 | MIC | > 100 µg/mL
Cc1ccc(-n2cc(CN(Cc3cn(-c4ccc(C)c(C)c4)nn3)c3nc4ccccc4s3)nn2)cc1C | MIC | > 100 µg/mL
Fc1ccc(-n2cc(CN(Cc3cn(-c4ccc(F)cc4F)nn3)c3nc4ccccc4s3)nn2)c(F)c1 | MIC | 3.12 µg/mL

Then there is this molecule:
IN: Identify measured MIC associated with Fc1ccccc1-n1cc(CN(Cc2cn(-c3ccccc3F)nn2)c2nc3ccccc3s2)nn1
OUT: > 100 µg/mL

----------
- System: Aspergillus fumigatus
- measurement protocol: Antimicrobial activity against Aspergillus fumigatus clinical isolate after 18 to 24 hrs by micro-dilution method
- Type: functional
assay metric: MIC

compound structure | MIC
Fc1ccccc1-n1cc(CN(Cc2cn(-c3ccccc3F)nn2)c2nc3ccccc3s2)nn1 | > 100 µg/mL
O=[N+]([O-])c1ccc(-n2cc(CN(Cc3cn(-c4ccc([N+](=O)[O-])cc4)nn3)c3nc4ccccc4s3)nn2)cc1 | > 100 µg/mL
Cc1cc(F)ccc1-n1cc(CN(Cc2cn(-c3ccc(F)cc3C)nn2)c2nc3ccccc3s2)nn1 | > 100 µg/mL
Fc1cccc(-n2cc(CN(Cc3cn(-c4cccc(F)c4)nn3)c3nc4ccccc4s3)nn2)c1 | > 100 µg/mL
Fc1ccc(-n2cc(CN(Cc3cn(-c4ccc(F)cc4Cl)nn3)c3nc4ccccc4s3)nn2)c(Cl)c1 | 6.25 µg/mL

IN: Using Aspergillus fumigatus as the test system, report measured MIC of COc1cccc(-n2cc(CN(Cc3cn(-c4cccc(OC)c4)nn3)c3nc4ccccc4s3)nn2)c1 .
OUT: 3.12 µg/mL

IN: Using Aspergillus fumigatus as the test system, report measured MIC of Brc1ccc(-n2cc(CN(Cc3cn(-c4ccc(Br)cc4)nn3)c3nc4ccccc4s3)nn2)cc1 .
OUT: 3.12 µg/mL

IN: Using Aspergillus fumigatus as the test system, report measured MIC of CCCCCc1ccc(-n2cc(CN(Cc3cn(-c4ccc(CCCCC)cc4)nn3)c3nc4ccccc4s3)nn2)cc1 .
OUT: > 100 µg/mL

----------
- Tested on: Shigella boydii
- measurement protocol: Antimicrobial activity against Shigella boydii clinical isolate after 18 to 24 hrs by micro-dilution method
- Type: functional
compounds and their reported MIC

For orientation, consider the following solved cases.
compound structure | reading
CCCCCc1ccc(-n2cc(CN(Cc3cn(-c4ccc(CCCCC)cc4)nn3)c3nc4ccccc4s3)nn2)cc1 | > 100 µg/mL
Fc1ccccc1-n1cc(CN(Cc2cn(-c3ccccc3F)nn2)c2nc3ccccc3s2)nn1 | > 100 µg/mL
COc1cccc(-n2cc(CN(Cc3cn(-c4cccc(OC)c4)nn3)c3nc4ccccc4s3)nn2)c1 | > 100 µg/mL
Clc1ccc(-n2cc(CN(Cc3cn(-c4ccc(Cl)cc4Cl)nn3)c3nc4ccccc4s3)nn2)c(Cl)c1 | > 100 µg/mL
FC(F)(F)Oc1ccc(-n2cc(CN(Cc3cn(-c4ccc(OC(F)(F)F)cc4)nn3)c3nc4ccccc4s3)nn2)cc1 | 100 µg/mL

IN: Identify measured MIC associated with Cc1cc(C)cc(-n2cc(CN(Cc3cn(-c4cc(C)cc(C)c4)nn3)c3nc4ccccc4s3)nn2)c1
OUT: 100 µg/mL

IN: Identify measured MIC associated with Clc1ccccc1-n1cc(CN(Cc2cn(-c3ccccc3Cl)nn2)c2nc3ccccc3s2)nn1
OUT: > 100 µg/mL

IN: Identify measured MIC associated with Fc1ccc(-n2cc(CN(Cc3cn(-c4ccc(F)cc4F)nn3)c3nc4ccccc4s3)nn2)c(F)c1
OUT: 100 µg/mL
